- Assay Text: Tmax in CD-1 mouse at 20 mg/kg, po administered as DMSO/PEG400/Cremophor RH40/water formulation measured upto 24 hrs by LC-MS/MS analysis
- Type: ADME, organism-based
- Test Conditions: in vivo
Experimental Readout: Tmax (h)

[[record]]
compound_structure_string = "O=c1[nH]c(-c2ccccc2)cn2cc([N+](=O)[O-])nc12"
value_reported = 2


====

- Assay Text: Oral bioavailability in CD-1 mouse at 25 mg/kg measured upto 48 hrs by LC/MS/MS analysis
- Assay type: ADME, organism-based
- Test Conditions: in vivo
Experimental Readout: bioavailability (%)

[[record]]
compound = "O=[N+]([O-])c1cn2c(n1)OC[C@@H](OCc1ccc(OC(F)(F)F)cc1)C2 [PRETOMANID]"
experimental_readout = "bioavailability"
endpoint_unit = "%"
value_reported = 100


====

- Assay Text: Oral bioavailability in CD-1 mouse at 20 mg/kg administered as DMSO/PEG400 formulation measured upto 24 hrs by LC-MS/MS analysis
- Format: ADME, organism-based
- Test Conditions: in vivo
Could you label it Fulfilled if measured bioavailability is 60% or higher, and Not fulfilled otherwise?

[[record]]
compound_structure_string = "O=c1c2nc([N+](=O)[O-])cn2ccn1Cc1ccc(-c2ccc(OC(F)(F)F)cc2)cn1"
classification = "Not fulfilled"

[[record]]
compound_structure_string = "O=c1c2nc([N+](=O)[O-])cn2ccn1Cc1cccc(OC(F)(F)F)c1"
classification = "Fulfilled"

[[record]]
compound_structure_string = "O=c1c2nc([N+](=O)[O-])cn2ccn1Cc1ccc(-c2cccnc2)cc1"
classification = "Fulfilled"

[[record]]
compound_structure_string = "O=c1c2nc([N+](=O)[O-])cn2ccn1Cc1ccc(OC(F)(F)F)cc1"
classification = "Fulfilled"

[[record]]
compound_structure_string = "O=c1c2nc([N+](=O)[O-])cn2ccn1Cc1cccc(C(F)(F)F)c1"
classification = "Fulfilled"


====

- Assay Text: Solubility of compound in PBS at 7.4 by LC-UV analysis
- Type: physicochemical
- Test Conditions: pH 7.4
Overview of reported solubility across a group of compounds:
Experimental Readout: solubility (µM)

[[record]]
compound_structure_string = "O=C1CCn2cc([N+](=O)[O-])nc2N1Cc1ccccc1"
experimental_readout = "solubility"
value_reported = 142

[[record]]
compound_structure_string = "O=C1c2nc([N+](=O)[O-])cn2CN1Cc1ccccc1"
experimental_readout = "solubility"
value_reported = 5.9

[[record]]
compound_structure_string = "O=c1c2nc([N+](=O)[O-])cn2ccn1Cc1ccccc1"
experimental_readout = "solubility"
value_reported = 2.7


====

- Assay Text: Clearance in CD-1 mouse at 5 mg/kg, iv administered as DMSO/PEG400 formulation measured upto 24 hrs by LC-MS/MS analysis
- Type: ADME, organism-based
- Test Conditions: in vivo
Experimental Readout: log10 clearance (log10 of the value in mL/min/kg)

[[record]]
compound_structure_string = "O=c1c2nc([N+](=O)[O-])cn2ccn1Cc1cccc(OC(F)(F)F)c1"
value_reported = 1.00

[[record]]
compound_structure_string = "O=c1c2nc([N+](=O)[O-])cn2ccn1Cc1ccc(-c2ccc(OC(F)(F)F)cc2)cn1"
value_reported = 0.31

[[record]]
compound_structure_string = "O=c1c2nc([N+](=O)[O-])cn2ccn1Cc1ccc(-c2cccnc2)cc1"
value_reported = 1.36

[[record]]
compound_structure_string = "O=c1c2nc([N+](=O)[O-])cn2ccn1Cc1ccc(OC(F)(F)F)cc1"
value_reported = 0.80

[[record]]
compound_structure_string = "O=c1c2nc([N+](=O)[O-])cn2ccn1Cc1cccc(C(F)(F)F)c1"
value_reported = 0.88

